tgt: YTHDF1 domain (Homo sapiens)
Construct: The human YTHDF1 YTH domain (amino acids 365–554, PDB: 4RCJ)
Sequence (Q9BYJ9 365-554): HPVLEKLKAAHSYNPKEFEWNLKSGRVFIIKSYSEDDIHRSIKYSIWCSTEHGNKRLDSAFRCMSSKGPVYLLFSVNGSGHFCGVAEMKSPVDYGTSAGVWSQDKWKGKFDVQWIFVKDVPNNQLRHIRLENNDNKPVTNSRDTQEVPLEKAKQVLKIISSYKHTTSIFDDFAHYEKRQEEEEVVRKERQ
assay.name: Dynamic mass redistribution (DMR), label-free
details: immobilized YTHDF1 domain, binding at equilibrium
Description: The protein was immobilized in a final volume of 15 μL/well of a 50 μg/mL solution in 20 mM sodium acetate buffer, pH 6, onto the surface of label-free microplates by amine-coupling chemistry. Different concentrations of ebselen (300 nM to 50 μM) were added to the plate and the mass of the molecular complex was measured every minute for 1 h. […]
value.kind: pEC50
Scale: negative log10 of molar concentration, which is what pEC50 denotes.

// query Requested read-out pEC50, target or system YTHDF1 domain (Homo sapiens), entry O=c1c2ccccc2[se]n1-c1ccccc1
// result 5.49
